Cited source: PubChem BioAssay (NCI)

Test system: U251 CNS
Assay: NCI tumour cell line growth inhibition, 48 h
test readout: TGI

See these solved cases before continuing.
Give U251 CNS TGI for the following molecule: COc1ccc(C(=O)c2cc(OC)c(OC)c(OC)c2)cc1OC(C)=O > 100 µM

Enter TGI (test system U251 CNS) for O=P(Oc1ccc(Cl)cc1)(Oc1ccc(Cl)cc1)N1CC1 > 10 µM

Print U251 CNS TGI for COC(=O)[C@H](C)N1C(=O)N[C@@H](C(C)C)C1=O . > 100 µM

Please find the next molecule below.
Provide TGI, recorded with U251 CNS, of Nc1ncnc2c1c(C(F)(F)F)cn2[C@@H]1O[C@H](CO)[C@@H](O)[C@H]1O > 89.6 µM
